Quick reference for IC50 among some molecules
Target: [35S]-TBPS binding in rat brain cortical membranes
Experiment: Steroid inhibition of [35S]-TBPS binding, rat brain cortical membranes
Conditions: 3 nM [35S]-TBPS, in the presence of 5 μM GABA, read-out: 35S-TBPS Radioligand Displacement (IC50)

Consider the following illustrative entries.
C[C@@]1(O)CC[C@@]2(CO)[C@@H](CC[C@H]3[C@@H]4CC[C@H](C(=O)CN5CCOCC5)[C@@]4(C)CC[C@@H]32)C1 = > 500 nM
COC[C@]12CC[C@@](C)(O)C[C@@H]1CC[C@H]1[C@@H]3CC[C@H](C(=O)Cn4nnc5cc(F)c(F)cc54)[C@@]3(C)CC[C@@H]12 = 50 to 100 nM
COC[C@]12CC[C@@](C)(O)C[C@@H]1CC[C@H]1[C@@H]3CC[C@H](C(=O)Cn4nc5cc(F)cc(F)c5n4)[C@@]3(C)CC[C@@H]12 = 50 to 100 nM
COC[C@]12CC[C@@](C)(O)C[C@@H]1CC[C@H]1[C@@H]3CC[C@H](C(=O)Cn4nnc5c(OC)c(OC)ccc54)[C@@]3(C)CC[C@@H]12 = 10 to 50 nM

QUERY: Give IC50 for the following molecule: CCOC(=O)c1ccn(CC(=O)[C@H]2CC[C@H]3[C@@H]4CC[C@H]5C[C@H](O)CC[C@]5(COC)[C@H]4CC[C@]23C)n1
RESULT: 10 to 50 nM

QUERY: Give IC50 for the following molecule: COC[C@]12CC[C@@](C)(O)C[C@@H]1CC[C@H]1[C@@H]3CC[C@H](C(=O)Cn4nccn4)[C@@]3(C)CC[C@@H]12
RESULT: 10 to 50 nM

* * *

Quick reference for Emax at 10 µM among some molecules
Molecular target: GABAA receptors composed of the α1β2γ2 subunits (GABRA1/GABRB2/GABRG2) (Homo sapiens, UniProt P14867+P47870)
Construct: expressed in transfected cells; host or cells: Xenopus laevis oocytes, injected (ratio 1:1:1)
Sequence (P14867 28-456): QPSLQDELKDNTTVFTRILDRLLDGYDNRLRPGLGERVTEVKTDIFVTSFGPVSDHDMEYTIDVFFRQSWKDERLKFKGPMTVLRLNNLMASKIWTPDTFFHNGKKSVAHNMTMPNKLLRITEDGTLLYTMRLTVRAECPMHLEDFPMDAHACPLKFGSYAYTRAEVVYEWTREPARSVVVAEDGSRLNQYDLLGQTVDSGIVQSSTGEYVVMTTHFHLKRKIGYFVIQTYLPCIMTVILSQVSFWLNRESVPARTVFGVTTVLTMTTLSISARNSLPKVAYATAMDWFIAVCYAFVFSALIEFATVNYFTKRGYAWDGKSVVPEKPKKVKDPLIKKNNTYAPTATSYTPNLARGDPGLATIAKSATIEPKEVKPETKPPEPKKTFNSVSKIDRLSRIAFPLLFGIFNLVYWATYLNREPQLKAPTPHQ
Sequence (P47870 26-512): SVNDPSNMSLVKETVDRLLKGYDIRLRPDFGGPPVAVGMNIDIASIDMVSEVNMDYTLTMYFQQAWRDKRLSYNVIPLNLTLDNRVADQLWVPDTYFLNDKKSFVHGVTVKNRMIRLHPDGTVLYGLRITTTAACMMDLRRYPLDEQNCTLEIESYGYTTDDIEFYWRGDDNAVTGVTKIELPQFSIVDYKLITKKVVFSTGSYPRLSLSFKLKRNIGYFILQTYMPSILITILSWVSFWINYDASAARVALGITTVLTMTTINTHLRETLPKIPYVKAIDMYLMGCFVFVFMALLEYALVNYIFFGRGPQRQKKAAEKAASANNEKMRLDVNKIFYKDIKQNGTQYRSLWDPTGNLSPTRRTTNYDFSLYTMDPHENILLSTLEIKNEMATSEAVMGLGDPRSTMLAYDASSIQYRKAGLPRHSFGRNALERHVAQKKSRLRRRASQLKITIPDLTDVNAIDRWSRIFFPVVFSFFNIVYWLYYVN
Sequence (P18507 40-475 partner): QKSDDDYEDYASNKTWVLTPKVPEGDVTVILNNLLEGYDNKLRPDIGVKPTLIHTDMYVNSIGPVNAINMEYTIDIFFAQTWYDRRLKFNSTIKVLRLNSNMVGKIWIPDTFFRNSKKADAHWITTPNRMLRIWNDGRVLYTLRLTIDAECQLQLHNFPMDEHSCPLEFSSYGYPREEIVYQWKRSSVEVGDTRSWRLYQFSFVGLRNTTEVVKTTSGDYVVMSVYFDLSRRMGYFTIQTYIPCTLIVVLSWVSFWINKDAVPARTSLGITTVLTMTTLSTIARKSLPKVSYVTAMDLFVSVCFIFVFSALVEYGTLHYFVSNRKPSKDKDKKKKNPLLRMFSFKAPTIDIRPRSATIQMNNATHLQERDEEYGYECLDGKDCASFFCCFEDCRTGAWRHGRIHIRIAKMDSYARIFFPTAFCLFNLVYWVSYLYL
Assay: Two Electrode Voltage Clamp (TEVC), GABA receptor potentiation in Xenopus laevis oocytes, α1β2γ2
Format: cell-based
Settings: 10 μM compound, 10 μM GABA, read-out: GABA (α1β2γ2) % efficacy at 10 μM

Consider the following illustrative entries.
CCOC[C@]12CC[C@@](C)(O)C[C@@H]1CC[C@H]1[C@@H]3CC[C@H](C(=O)Cn4nc5ccc(Cl)cc5n4)[C@@]3(C)CC[C@@H]12 = 50 to 500%
COC[C@]12CC[C@@](C)(O)C[C@H]1CC[C@H]1[C@@H]3CC[C@H](C(=O)Cn4nc5cccc(F)c5n4)[C@@]3(C)CC[C@@H]12 = 1000 to 1500%
COC[C@]12CC[C@@](C)(O)C[C@H]1CC[C@H]1[C@@H]3CC[C@H](C(=O)Cn4nnc5cccc(F)c54)[C@@]3(C)CC[C@@H]12 = 500 to 1000%
COC[C@]12CC[C@@](C)(O)C[C@@H]1CC[C@H]1[C@@H]3CC[C@H](C(=O)Cn4nnc5cc(Cl)cnc54)[C@@]3(C)CC[C@@H]12 = 500 to 1000%
COC[C@]12CC[C@@](C)(O)C[C@@H]1CC[C@H]1[C@@H]3CC[C@H](C(=O)Cn4cnc5ccccc54)[C@@]3(C)CC[C@@H]12 = 1000 to 1500%

QUERY: Give Emax at 10 µM for the following molecule: COC[C@]12CC[C@@](C)(O)C[C@@H]1CC[C@H]1[C@@H]3CC[C@H](C(=O)Cn4cc5ccc(Cl)cc5n4)[C@@]3(C)CC[C@@H]12
RESULT: 50 to 500%
